# Tested on: Neutrophil
# ASSAY_NAME: Inhibition of fMLP/CB-activated human neutrophil degranulation assessed as inhibition of elastase release at 30 uM using MeO-Suc-Ala-Ala-Pro-Val-p-nitroanilide as a substrate after 5 mins relative to control
# Type: functional
Please note: Y applies when inhibition at 30 µM is 20% or greater, and N applies otherwise.

Prompt: Hi, just wondering whether COC(=O)[C@H]1O[C@@H](O[C@H]2CC[C@]3(C)[C@H]4CC=C5[C@@H]6CC(C)(C)CC[C@]6(C(=O)O[C@@H]6O[C@H](CO)[C@@H](O)[C@H](O)[C@H]6O)CC[C@@]5(C)[C@]4(C)CC[C@H]3C2(C)C)[C@H](O)[C@@H](O)[C@@H]1O[C@@H]1O[C@@H](CO)[C@H](O)[C@H]1O shows inhibition at 30 µM of 20% or higher.
Response: Y

Prompt: Hi, just wondering whether CC(C)(O)[C@@H]1CC[C@@](C)([C@H]2CC[C@]3(C)[C@@H]2[C@H](O)C[C@@H]2[C@@]4(C)CC[C@H](O)C(C)(C)[C@@H]4[C@@H](O[C@@H]4O[C@H](CO)[C@@H](O)[C@H](O)[C@H]4O[C@@H]4O[C@H](CO)[C@@H](O)[C@H](O)[C@H]4O)C[C@]23C)O1 shows inhibition at 30 µM of 20% or higher.
Response: N

Prompt: Hi, just wondering whether CC(C)=CCC[C@](C)(O[C@@H]1O[C@H](CO[C@@H]2O[C@H](CO)[C@@H](O)[C@H](O)[C@H]2O)[C@@H](O)[C@H](O)[C@H]1O)[C@H]1CC[C@]2(C)[C@@H]1[C@H](O)C[C@@H]1[C@@]3(C)CC[C@H](O[C@@H]4O[C@H](CO)[C@@H](O)[C@H](O)[C@H]4O[C@@H]4O[C@H](CO)[C@@H](O)[C@H](O)[C@H]4O)C(C)(C)[C@@H]3CC[C@]12C [GINSENOSIDE RB1] shows inhibition at 30 µM of 20% or higher.
Response: N

Prompt: Hi, just wondering whether CC1(C)CC[C@]2(C(=O)O[C@@H]3O[C@H](CO)[C@@H](O)[C@H](O)[C@H]3O)CC[C@]3(C)C(=CC[C@@H]4[C@@]5(C)CC[C@H](O[C@@H]6O[C@H](C(=O)O)[C@@H](O[C@H]7O[C@@H](CO)[C@H](O)[C@H]7O)[C@H](O[C@@H]7O[C@H](CO)[C@@H](O)[C@H](O)[C@H]7O)[C@H]6O)C(C)(C)[C@@H]5CC[C@]43C)[C@@H]2C1 [STIPULEANOSIDE R2] shows inhibition at 30 µM of 20% or higher.
Response: Y

Prompt: Hi, just wondering whether CC(C)=CCC[C@](C)(O[C@@H]1O[C@H](CO)[C@@H](O)[C@H](O)[C@H]1O)[C@H]1CC[C@]2(C)[C@@H]1[C@H](O)C[C@@H]1[C@@]3(C)CC[C@H](O)C(C)(C)[C@@H]3[C@@H](O[C@@H]3O[C@H](CO)[C@@H](O)[C@H](O)[C@H]3O)C[C@]12C [GINSENOSIDE RG1] shows inhibition at 30 µM of 20% or higher.
Response: N
